// data source = PubChem BioAssay (NCI)

System: HL-60(TB) leukemia
PROTOCOL: NCI-60 one-dose screen, 48 h (100 = growth as untreated, 0 = no growth, -100 = all killed)
REPORTED CONDITIONS: 10 µM unless noted
The panel holds about 83,000 compounds, 20% with a hit somewhere; the sample as a whole holds those more often. Active and inactive are the calls of the source. Rule for the calls: active = growth percent below 10; inactive = the rest.
READOUT TYPE: growth

CHEM SMILES: NC(N)=N/N=C/c1ccc(Br)cc1
growth: -0.0458% (active)
//
CHEM SMILES: Cc1ccc(OCC(=O)Nc2ccc(Oc3ccccc3)cc2)c([N+](=O)[O-])n1
growth: 69% (inactive)
//
CHEM SMILES: COc1ccc(C2=C/C(=C\c3ccc(Cl)cc3)C(=O)N2/N=C/c2ccc(Cl)cc2)cc1
growth: 102% (inactive)
//
CHEM SMILES: COc1ccc([N+](=O)[O-])c(S(=O)(=O)c2ccc(Cl)cc2)n1
growth: 38.2% (inactive)
//
CHEM SMILES: Nc1ccc([N+](=O)[O-])c2c1Oc1ccccc1O2
growth: -17.4% (active)

Problem: Query growth on HL-60(TB) leukemia for CN1CCN(c2ccc(-c3cnc4c(-c5csc6ccccc56)cnn4c3)cc2)CC1
Result: 9.53% (active)

Problem: What about this compound? O=C(/C=C/c1ccccn1)c1ccc(OCc2nnc(-c3ccc(Cl)cc3)o2)cc1
Result: 43% (inactive)

Problem: What about COc1ccc2c(c1)CC/C(=C\c1cncc(Br)c1)C2=O ?
Result: 100% (inactive)

Problem: What about this compound? O=C(N/N=C/c1c(Cl)cccc1Cl)c1ccccc1Nc1ccnc(C(F)(F)F)c1
Result: 96.5% (inactive)

Problem: Another compound to check: COc1ccc2nc3cc(Cl)ccc3c(Nc3cc(CN4CCCC4)c(O)c(CN4CCCC4)c3)c2n1
Result: -20.4% (active)

---

Test system: HCT-15 colon
PROTOCOL: NCI-60 one-dose screen, 48 h (100 = growth as untreated, 0 = no growth, -100 = all killed)
REPORTED CONDITIONS: 10 µM
Protocol: Growth inhibition of the HCT-15 human tumor cell line is measured as a screen for anti-cancer activity. Cells are grown in 96 well plates and exposed to the test compound for 48 hours. Compounds are tested at a single concentration, which is 10^-5 M for most compounds. The reported endpoint is percent growth (GI% or GIPRCNT), where numbers from 0 - 100% represent growth inhibition, and numbers from -100% - 0 represent cell death. For example, a value of 40 represents 60% growth inhibition. […]
This is part of a sample that, as a whole, favours compounds with a hit. Of some 83,000 tested, about 20% had one in any assay.
READOUT TYPE: growth (%)
Numbers only here, please. The scale is %.

Problem: API: value(readout= growth, system= HCT-15 colon, query= COc1cc(C2=NN(c3ccccc3)C(c3sc(N(CCCl)CCCl)nc3Cl)C2)cc(OC)c1OC (stereo unspecified) )
Result: 97.5

Problem: How about CCC[CH2][Sn]1([CH2]CCC)[O]C(=O)c2cccc([N+](=O)[O-])c2C(=O)[O]1 ?
Result: -85.5

---

Entries and their growth values follow.
System: HL-60(TB) leukemia
PROTOCOL: NCI-60 one-dose screen, 48 h (100 = growth as untreated, 0 = no growth, -100 = all killed)
REPORTED CONDITIONS: 10 µM unless noted
Compounds without any hit were thinned out: in the full panel of roughly 83,000, 20% have a hit. The source made the active and inactive calls. Rule for the calls: active = growth percent below 10; inactive = the rest.

For orientation, consider the following solved cases.
MOLECULE: Cn1ccnc1C(=O)/C=C/c1ccc(C(=O)Nc2c(F)c(F)c(F)c(F)c2F)cc1
growth: -22.4% (active)
--
MOLECULE: COc1cccc2c1C(=O)c1c(O)c3c(c(O)c1C2=O)C[C@@](O)(/C(C)=N/NC(=O)c1ccc(Cl)cc1)C[C@@H]3OC1CC(N)C(O)C(C)O1 (stereo not given in full)
growth: -53.4% (active)
--
MOLECULE: CCCCOP(=O)(OCCCC)C(C(=O)OCC)C(CC(=O)OCC)C(=O)OCC (stereo not given)
growth: 102% (inactive)

Problem: Requested read-out: growth. Entry: CC(C)C[C@H](C(=O)N[C@@H](C)C(N)=O)N1CC=CCN(O)S1(=O)=O
Result: 110% [5 µM] (inactive)

Problem: # iterate: CC(C)c1ccc(/C=N/Nc2nc3ccccc3s2)cc1
Result: 98% (inactive)

---

System: HL-60(TB) leukemia
PROTOCOL: NCI-60 one-dose screen, 48 h
REPORTED CONDITIONS: 10 µM unless noted
Compounds without any hit were thinned out: in the full panel of roughly 83,000, 20% have a hit. Active and inactive are the calls of the source. The calls were made as follows: active = growth percent below 10; inactive = the rest.
Please reply with one of these outcomes: true (1) for active, false (0) for inactive

Below are worked cases with known answers.
COMPOUND: CCCCCCCC/C=C\CCCCCCCCOc1cccc(CC(=O)NCC[N+]2(C)CCOCC2)c1
GROUP LABEL: false (0)

COMPOUND: COc1ccc(C(=O)c2cc3c(N)c(C(=O)Nc4ccc(Cl)cc4)sc3nc2C)cc1
GROUP LABEL: false (0)

COMPOUND: Clc1ccc2c(NCCNc3nc(-c4ccccc4)cc(-c4ccccc4)n3)ccnc2c1
GROUP LABEL: true (1)

COMPOUND: CC(CCC(=O)O)(NC(=O)c1ccc([N+](=O)[O-])cc1)C(=O)O (stereo not given)
GROUP LABEL: false (0)

Problem: Please indicate how the test categorized Cc1csc(Nc2nc(-c3cccc(Cl)c3)nc(C(Cl)(Cl)Cl)n2)n1 .
Result: true (1)

---

Measured growth values are reported for all entries that follow.
Test system: HL-60(TB) leukemia
PROTOCOL: NCI-60 one-dose screen, 48 h (100 = growth as untreated, 0 = no growth, -100 = all killed)
REPORTED CONDITIONS: 10 µM unless noted
Compounds without any hit were thinned out: in the full panel of roughly 83,000, 20% have a hit.
Reply numerically in %, unit not repeated.

Completed entries (count: 3):
COMPOUND: C/C(=C\CCc1ccsc1)CC/C=C(\C)CCCN1CCSCC1
READOUT VALUE: 67.7
--
COMPOUND: O=C1/C(=N\c2cc(=O)[nH]n2S(=O)(=O)c2ccccc2)Nc2ccccc21
READOUT VALUE: 102
--
COMPOUND: O=C(O)c1cc(N=Nc2ccc(-c3ccc(N=Nc4c(S(=O)(=O)O)cc5ccc(Nc6ccccc6)cc5c4O)cc3)cc2)ccc1O
READOUT VALUE: 98.9

Problem: Consider the compound shown here: COc1ccc(NC(=O)c2sc3nc(C)c(C(O)c4ccccc4)cc3c2N)cc1 (configuration not stated) What is its recorded growth?
Result: -51.9

Problem: Next entry: CN(C)c1ccc(Cc2cc(-c3ccccc3)nn(C/C(=N/O)c3ccccc3)c2=O)cc1
Result: 54.3

Problem: Would you mind doing Cc1c2ccccc2nc2cc3c(cc12)[C@H]1CC[C@]2(C)C(=O)CC[C@H]2[C@@H]1CC3 as well?
Result: 97.1

Problem: Here is the next compound: O=C/C=C/c1ccc([N+](=O)[O-])cc1
Result: 106

Problem: One more compound: COc1nc2ccccc2cc1/C=C1/C=C(c2ccccc2)NC1=O
Result: -8.46

Problem: Also, O=[N+]([O-])c1c(S(=O)(=O)O)cc2cc(S(=O)(=O)O)ccc2c1[N+](=O)[O-] please.
Result: 108

Problem: Would you kindly repeat that for COc1ccc(C(=O)/C(=N/Nc2ccccc2)c2ccc(OC)cc2)cc1 ?
Result: 88.4

Problem: What would you report for O=C(C1=Cc2cc3ccccc3n2Cc2cnnn21)c1ccc(O)cc1 ?
Result: 41.7

Problem: Same question, NC(=O)N/N=C\c1ccco1 this time
Result: 102

Problem: Next entry: CC(C)NC(=O)N/C=C(\C#N)C(N)=O
Result: 137

Problem: # repeat for COc1cc(C2CC(=O)Nc3c2c(C)nn3-c2nc3ccccc3[nH]2)cc(OC)c1OC (configuration not stated)
Result: 108

Problem: Now consider COc1ccc(-c2cc(-c3ccc(OC)c(OC)c3)nc(SCCCCCC(=O)NO)n2)cc1 and answer again.
Result: -9.93

---

System: HL-60(TB) leukemia
PROTOCOL: NCI-60 one-dose screen, 48 h
REPORTED CONDITIONS: 10 µM unless noted
Compounds without any hit were thinned out: in the full panel of roughly 83,000, 20% have a hit. Calls of active or inactive are those of the source. How the source made its calls: active means growth percent below 10; inactive means the rest.
Select the correct class. Options are Y for active, N for inactive and nothing else.

See these solved cases before continuing.
CHEM SMILES: COc1cccc(-n2cc(-c3nc(Cl)c4ccccc4n3)nn2)c1
SYSTEM UNDER TEST: HL-60(TB) leukemia
GROUP LABEL: N
--
CHEM SMILES: Cc1cc(-c2ccccc2)on1
SYSTEM UNDER TEST: HL-60(TB) leukemia
GROUP LABEL: N
--
CHEM SMILES: COC(=O)CCC1=C(C)C(C)=N/C1=C\c1[nH]c(-c2ccc[nH]2)cc1OC
SYSTEM UNDER TEST: HL-60(TB) leukemia
GROUP LABEL: Y

Problem: Lab log entry: COc1ccc(/C(=C\c2ccc3c(c2)OCO3)C(=O)Nc2nc3ccccc3s2)cc1 — outcome as called in the assay?
Result: N

Problem: Next record, please: S=C1N(c2ccccc2)CN(C2CCCCC2)CN1c1ccccc1
Result: N

Problem: Here is the next compound: C[n+]1cc2cc3c(cc2c2ccccc21)OCO3
Result: N
